Exercise: for every item that follows, state its recorded pEC50.
system under test: T1, Human CDCP1 (human, UniProt Q9H5V8 30-667, limits assumed)
T1 construct: also called CUB domain-containing protein 1; SIMA135
T1 sequence (looked up): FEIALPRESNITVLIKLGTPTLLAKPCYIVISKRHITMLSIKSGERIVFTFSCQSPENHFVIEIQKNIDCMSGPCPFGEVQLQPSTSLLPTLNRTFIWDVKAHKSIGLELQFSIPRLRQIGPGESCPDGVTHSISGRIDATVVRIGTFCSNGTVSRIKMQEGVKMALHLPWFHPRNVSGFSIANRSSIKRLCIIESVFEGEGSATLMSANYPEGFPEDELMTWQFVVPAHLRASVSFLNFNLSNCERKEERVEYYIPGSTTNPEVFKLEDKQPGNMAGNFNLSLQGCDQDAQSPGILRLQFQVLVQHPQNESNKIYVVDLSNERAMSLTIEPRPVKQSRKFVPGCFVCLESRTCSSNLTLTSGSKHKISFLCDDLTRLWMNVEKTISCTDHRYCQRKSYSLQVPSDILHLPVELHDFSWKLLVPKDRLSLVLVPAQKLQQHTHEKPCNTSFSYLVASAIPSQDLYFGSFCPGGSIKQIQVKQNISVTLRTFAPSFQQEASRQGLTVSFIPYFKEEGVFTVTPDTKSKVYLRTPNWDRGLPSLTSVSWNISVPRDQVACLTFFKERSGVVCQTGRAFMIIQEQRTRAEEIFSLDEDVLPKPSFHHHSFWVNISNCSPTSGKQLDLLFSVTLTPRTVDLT
assay overview: ELISA; column head 'ELISA~EC50 Kd (nM)'
FYI, pEC50 means -log10 of a concentration in mol per litre.

INPUT: # pEC50 lookup, item CDCP1-006 Fab (Fab, V domains shown, Tested as Fab) VH: EVQLVESGGGLVQPGGSLRLSCAASGFNLYYSYMHWVRQAPGKGLEWVAYISPYSGSTYYADSVKGRFTISADTSKNTAYLQMNSLRAEDTAVYYCARYSYSALDYWGQGTLVTVSS VL: DIQMTQSPSSLSASVGDRVTITCRASQSVSSAVAWYQQKPGKAPKLLIYSASSLYSGVPSRFSGSRSGTDFTLTISSLQPEDFATYYCQQSSWHYHLFTFGQGTKVEIK
OUTPUT: 7.53

INPUT: What does the data say about its pEC50? Entry: CDCP1-002 Fab (Fab, V domains shown, Tested as Fab from a synthetic Fab-phage library; Used 89Zr-labeled for PET and 125I-labeled for Bmax; also called CDCP1-4A06; CDCP1 Fab) VH: EVQLVESGGGLVQPGGSLRLSCAASGFNLSYYYIHWVRQAPGKGLEWVASIYSSSSYTSYADSVKGRFTISADTSKNTAYLQMNSLRAEDTAVYYCARAYYGFDYWGQGTLVTVSS VL: DIQMTQSPSSLSASVGDRVTITCRASQSVSSAVAWYQQKPGKAPKLLIYSASSLYSGVPSRFSGSRSGTDFTLTISSLQPEDFATYYCQQSYYYYPITFGQGTKVEIK
OUTPUT: 9.19

INPUT: Suppose we examine the binder CDCP1-007 Fab (Fab, V domains shown, Tested as Fab) VH: EVQLVESGGGLVQPGGSLRLSCAASGFNIYSYYIHWVRQAPGKGLEWVASIYPYYGYTSYADSVKGRFTISADTSKNTAYLQMNSLRAEDTAVYYCARAYYGMDYWGQGTLVTVSS VL: DIQMTQSPSSLSASVGDRVTITCRASQSVSSAVAWYQQKPGKAPKLLIYSASSLYSGVPSRFSGSRSGTDFTLTISSLQPEDFATYYCQQSYFYWPITFGQGTKVEIK ; what pEC50 value has been reported?
OUTPUT: 7.74
